Just for reference, PubChem BioAssay AID1745849 is where these values come from.

Experiment: Viability Counterscreen for CMV-Luciferase Assay of Inhibitors of ATXN expression; note: nearly all actives have a fitted effect of over 55% in size
Details: HEK-293 CMV-luciferase cells viability, protease fluorescence, 24 h
Text: PI: Daniel Scoles Ph.D. University of Utah School of Medicine, Salt Lake City, Utah MLPCN Grant: NS073009 Spinocerebellar ataxia type 2 (SCA2) is a multisystem neurodegenerative disease caused by a dominantly acting mutation leading to expansion of a polyQ domain in the ataxin-2 protein (ATXN2). SCA2 patients develop progressive ataxia and later lose function in other neuronal systems. […] Here we describe a 5-7 dose quantitative high thoroughput screen (qHTS) for compounds lowering ATXN2 expression. […]
The campaign covered roughly 2,100 compounds. About 320 (15%) were called active. Roughly 52% stayed inconclusive and do not appear here. Calls come from the whole dose curve; as a rule, active = well fitted cell-killing curve with a large enough effect; inconclusive = small, poorly fitted or top-dose-only effect, or effect the other way; inactive = flat fitted curve, though single readings scatter. The list shows a part of the results.
Response enum: T (active), F (inactive)

Request: Given Cc1cc(C)c(C(O)c2ncc(-c3cccc4ccccc34)[nH]2)c(C)c1 (stereo not given) , state the outcome it received in this test.
Response: F

Request: Please share the test call associated with Cc1ccc(N=Nc2ccc(O)c3ncccc23)cc1 .
Response: T

---
Request: Please state the recorded outcome for this compound: COc1cc2cc(C(=O)NC(C)c3cccc4ccccc34)c(N)nc2cc1OC (stereo not given)
Response: F

Request: I'd appreciate the recorded outcome for COc1cc2c(C(=O)N3CCOCC3)c(CSc3ccccc3)n(C)c2cc1Br from this test.
Response: F

Request: # outcome recorded in this test, key = N#C/C(=C\C=C\c1ccccc1[N+](=O)[O-])C(=O)NCc1ccccc1
Response: T

Request: # lookup: test call for O=C(c1ccco1)N1CCN(c2ncnc3scc(-c4cccs4)c23)CC1
Response: F

Request: // return assay outcome for NC(N)=N/N=C/c1ccc2cccc(OCc3ccccc3)c2n1
Response: T

Request: Call for entry CC(=O)N1CCN(c2ccc(Oc3ccc([N+](=O)[O-])c(C(F)(F)F)c3)cc2)CC1 :
Response: F

Request: Test call for this compound, please: COc1cc(-c2nnc(SCC(=O)N(Cc3ccccc3)C(C)(C)C)o2)cc(OC)c1OC
Response: F

Request: Could you kindly confirm the outcome this assay logged for CC(C)N(Cc1ccccc1)C(=O)/C=C/c1ccccc1[N+](=O)[O-] ?
Response: F

* * *

experiment: Viability Counterscreen for CMV-Luciferase Assay of Inhibitors of ATXN expression; conditions: HEK-293 CMV-luciferase cells viability, protease fluorescence, 24 h; note: nearly all actives have a fitted effect of over 55% in size
Among all 2,100 compounds or so, about 320 (15%) were called active. About 52% were inconclusive and are not listed. The call rests on the fitted dose curve; in most records, active means well fitted cell-killing curve with a large enough effect; inconclusive means small, poorly fitted or top-dose-only effect, or effect the other way; inactive means flat fitted curve, though single readings scatter. This is one part of the list.
Parameter call: string, one of active, inactive

Look over these answered cases.
Request: I would be grateful if you could indicate the recorded call for COc1ccc(CNC(=O)c2ccc(-c3cccnc3)c3ccoc23)cc1OC .
Response: inactive

Request: Query: recorded result category for O=C(Nc1ccc(N2CCN(C(=O)c3ccccc3)CC2)c(Cl)c1)c1ccc(Br)o1 in this test
Response: inactive

Request: Status in this test for CCN(CC)S(=O)(=O)c1ccc(C(=O)Nc2ccc(Cc3ccncc3)cc2)cc1 ?
Response: inactive

Request: Please share the test call associated with COC(=O)c1c(NC(=O)/C=C/C(=O)O)sc(C)c1-c1ccc(C(C)C)cc1 .
Response: active

Request: Recorded test outcome, item O=C(Nc1ccc(Cl)cc1)Nc1ccc(N2CCCC2)c(S(=O)(=O)Nc2ccccc2Cl)c1
Response: active

Request: Can you look up the reported call for CC(C)(C)c1ccc(CC(=O)N2CCC2(C)C(=O)Nc2cnc3ccccc3c2)cc1 (stereo not given) for me?
Response: inactive

Request: Could you check what this test reported for O=C(/C=C/c1ccc(Cl)cc1)Nc1ccc(CN2CCOCC2)cc1 ?
Response: inactive

Request: What was the test verdict on COc1ccccc1-c1cc2nc(-c3ccccc3)cc(N3CCN(C(=O)c4ccoc4)CC3)n2n1 ?
Response: active

Request: What is the recorded call for this compound in the test? c1ccc(Cn2c(-c3ccccc3)c[n+]3c2SCCC3)cc1
Response: inactive

Request: Just curious, what result did CCn1ccnc1CN1CCCC(C(=O)c2ccc3cc(OC)ccc3c2)C1 (stereo not given) get here?
Response: inactive

Further cases:
Request: Write down the call the test reported for this compound. Item: CCSc1nc2ccccc2n1C(=O)/C=C\c1ccc(OC)c(OC)c1
Response: active

Request: Which outcome did this test record for the compound CN(c1ccccc1)S(=O)(=O)c1ccc(C(=O)Nc2nnc(-c3ccc(F)cc3)o2)cc1 ?
Response: active

Request: What call does the record list for Cc1ccc(Cc2cnc(NC(=O)/C(C#N)=C/c3ccc(-c4cccc([N+](=O)[O-])c4)o3)s2)cc1 ?
Response: active

Request: Record request — test call for NS(=O)(=O)c1ccc(CCNC(=O)COC(=O)/C=C/c2cc(Br)ccc2F)cc1
Response: inactive

* * *

assay: Viability Counterscreen for CMV-Luciferase Assay of Inhibitors of ATXN expression; conditions: HEK-293 CMV-luciferase cells viability, protease fluorescence, 24 h; note: nearly all actives have a fitted effect of over 55% in size
About 320 (15%) of roughly 2,100 compounds were called active. Roughly 52% stayed inconclusive and do not appear here. Calls come from the whole dose curve; as a rule, active = well fitted cell-killing curve with a large enough effect; inconclusive = small, poorly fitted or top-dose-only effect, or effect the other way; inactive = flat fitted curve, though single readings scatter. The list shows a part of the results.
Return exactly one item of TRUE (active), FALSE (inactive)

Request: Check the results log: what was the call for Cc1ccc(S(=O)(=O)Nc2cccc3cccnc23)cc1 ?
Response: FALSE

Request: Per the assay record, what outcome was assigned to O=S(=O)(Nc1cccc2cccnc12)c1ccccc1 ?
Response: FALSE

Request: Dear colleague, could you share the recorded outcome for Cc1ccc(/C=C2/CNC/C(=C/c3ccc(C)cc3)C2=O)cc1 when you have a moment?
Response: TRUE

* * *

assay: Viability Counterscreen for CMV-Luciferase Assay of Inhibitors of ATXN expression; settings: HEK-293 CMV-luciferase cells viability, protease fluorescence, 24 h; note: nearly all actives have a fitted effect of over 55% in size
About 320 (15%) of roughly 2,100 compounds were called active. Another 52% or so got no clear call; they are omitted. Calls come from the whole dose curve; as a rule, active = well fitted cell-killing curve with a large enough effect; inconclusive = small, poorly fitted or top-dose-only effect, or effect the other way; inactive = flat fitted curve, though single readings scatter. The list shows a part of the results.
Your reply should match one of these outcome classes. active, inactive

Request: I'd appreciate the recorded outcome for COc1ccc(/C=C/C(O)=C2/C(=O)N(C)C3(C)CC2c2ccccc2O3)cc1 (stereo unspecified) from this test.
Response: inactive

Request: Test call, this compound: O=C(Nc1ccc[n+](CC(=O)c2cccc3ccccc23)c1)c1ccccc1
Response: active

Request: Look up the recorded call for CCC(=O)OC1(C(C)=O)CCC2C3CCC4=CC(=O)CCC4(C)C3CCC21C (stereo unspecified) in this test.
Response: inactive

Request: Outcome? CCn1c2ccccc2c2cc(NC(=O)COC(=O)C3CCC(=O)N3)ccc21 (stereo unspecified)
Response: inactive

Request: # lookup: test call for CC(C)(C)n1nnnc1C(c1cccs1)N(Cc1ccc(Cl)cc1)CC1CCCO1 (stereo unspecified)
Response: inactive

---
Request: Would you mind telling me which call this test gave CC1(C(=O)NC2CCN(Cc3ccccc3)CC2)CCN1Cc1ccc2ccccc2c1 (stereo unspecified) ?
Response: inactive

Request: Check the results log: what was the call for Cc1cccc(OCCCC(=O)Nc2nc3ccccc3[nH]2)c1 ?
Response: inactive

Request: Check the results log: what was the call for COc1cccc(OC)c1C(=O)OCC(=O)NC(=O)NCc1ccccc1 ?
Response: inactive

Request: Test call for this compound, please: CCOc1ccc(/C=C/[N+](=O)[O-])c2ccccc12
Response: active

* * *

assay: Viability Counterscreen for CMV-Luciferase Assay of Inhibitors of ATXN expression; conditions: HEK-293 CMV-luciferase cells viability, protease fluorescence, 24 h; note: nearly all actives have a fitted effect of over 55% in size
Hit rate of the full screen: of about 2,100 compounds, about 320 (15%) were called active. Inconclusive results (about 52%) are left out. Calls come from the whole dose curve; as a rule, active = well fitted cell-killing curve with a large enough effect; inconclusive = small, poorly fitted or top-dose-only effect, or effect the other way; inactive = flat fitted curve, though single readings scatter. Some of the results follow.
// allowed return values: active, inactive

Solved cases (8 shown):
Request: # outcome recorded in this test, key = O=C(Nc1ccc(N2CCOCC2)c(Cl)c1)c1c(F)c(F)c(F)c(F)c1F
Response: inactive

Request: Short answer needed: outcome of this test for O=C(Nc1cccc(Cl)c1)c1ccc2c(c1)SC1=NS(=O)(=O)CCN12 ?
Response: inactive

Request: // return assay outcome for NNc1nc(N)c2c(n1)-c1ccccc1CC21CCCC1
Response: inactive

Request: Record request — test call for OC(c1ccccc1)(c1nc(-c2ccc3ccccc3c2)cs1)C(F)(F)F (stereo unspecified)
Response: inactive

Request: What did this assay record as the result for COc1ccc(OCCNC(=O)C2(C)CCN2Cc2ccc3ccccc3c2)cc1 (stereo unspecified) ?
Response: inactive

Request: # outcome recorded in this test, key = COc1ccc(/C=C/C(=O)Nc2cccc(S(=O)(=O)N3CCCC3)c2)cc1OC
Response: inactive

Request: Field: outcome | Entry: C/C(=N\N=C(N)N)c1ccc(Cl)cc1Cl
Response: inactive

Request: Dear colleague, could you share the recorded outcome for CCN1CCS/C1=C\C=C\C1=[N+](CC)CCS1 when you have a moment?
Response: active

***
Request: Test call, this molecule: CCN(CC)S(=O)(=O)c1ccc(N/N=C/c2cc(OC)ccc2O)nc1
Response: inactive

Request: Recorded test outcome, item Nn1cnnc1N/N=C/c1cc(Br)cc(Br)c1O
Response: inactive

Request: I'd appreciate the recorded outcome for CCc1nnc(NC(=O)c2ccc(S(=O)(=O)N(C)c3ccccc3)cc2)o1 from this test.
Response: inactive
